The reported measurements were obtained from the METLIN SMRT retention time set (Domingo-Almenara et al. 2019).

# Assay text: gradient 5% acetonitrile 3 min, to 50% in 2 min, to 85% in 15 min, held 3 min, 100 µL/min
# Condition set: column: Zorbax Extend-C18 2.1 x 50 mm; eluents: water / acetonitrile, 0.1% formic acid
Property name: RP-LC retention time
In your response, put the unit directly after the numeric value.

Known RP-LC retention time results, listed for orientation:
CCOC(=O)CCNC(=O)N1CCCN(C)c2ccccc21
623 s
Cc1cc(C)cc(C(=O)NCc2ccc3c(c2)CCCN3C(=O)C2CCC2)c1
981 s
O=C(OCCN1CCOCC1)C1(c2ccccc2)CCCCC1
755 s
CN(C)S(=O)(=O)N1CCOc2ccc(CCC(=O)NCC3CC3)cc2C1
767 s
CCCC(=O)Nc1nc2ccc(CCC(=O)N3CCN(c4ccccn4)CC3)cc2s1
603 s
Cc1cccc(N2CCN(C(=O)C3CCCN(c4cnc5nccnc5c4)C3)CC2)c1 (stereo not drawn)
775 s

Please give the documented RP-LC retention time of `CCCN1C(=O)COc2ccc(-c3noc(-c4cccc(NC(C)=O)c4)n3)cc21`
925 s

Please give the documented RP-LC retention time of Cc1ccc(N2N=NC3C(=O)N(c4ccccc4)C(=O)C32)cc1F (stereo not drawn)
1010 s

###

# Assay text: gradient 5% acetonitrile 3 min, to 50% in 2 min, to 85% in 15 min, held 3 min, 100 µL/min
# Condition set: column: Zorbax Extend-C18 2.1 x 50 mm; eluents: water / acetonitrile, 0.1% formic acid
Recorded RP-LC retention time values for a group of compounds are listed next.
In your response, put the unit directly after the numeric value.

CCCNC(=O)N1CCC2(CC1)C(=O)N(C)c1ccccc12
708 s

Please give the documented RP-LC retention time of `CN1c2ccc(Cl)cc2C(=O)NC12CCN(C(=O)NC1CCCCC1)CC2`
818 s

Please give the documented RP-LC retention time of `CC(C)n1cnc(S(=O)(=O)N2CCC(C(=O)Nc3ccc(F)c(Cl)c3)CC2)c1`
834 s

Please give the documented RP-LC retention time of `CCn1c(C(=O)N2CCOCC2)cc2c(=O)oc3ccccc3c21`
713 s

Please give the documented RP-LC retention time of `O=C(NCc1ccccc1Br)c1cn2c(n1)COCC2`
680 s

###

Recorded RP-LC retention time values for a group of compounds are listed next.
# Assay text: gradient 5% acetonitrile 3 min, to 50% in 2 min, to 85% in 15 min, held 3 min, 100 µL/min
# Condition set: column: Zorbax Extend-C18 2.1 x 50 mm; eluents: water / acetonitrile, 0.1% formic acid
Your answer is read as s, so omit the unit and give the number.

Known RP-LC retention time results, listed for orientation:
CCOC(=O)c1ccccc1NC(=O)Cn1c(=O)c(CCC(=O)NC2CCCC2)nc2ccccc21
1130
CC(C)(C)c1cc(C(=O)NCc2ccc(F)cc2)nc2ccnn12
1140

Please give the documented RP-LC retention time of `CCc1nnc(-c2cn(CC(=O)NCCCc3ccccc3)c3ccccc23)o1`
877

###

# Assay text: gradient 5% acetonitrile 3 min, to 50% in 2 min, to 85% in 15 min, held 3 min, 100 µL/min
# Condition set: column: Zorbax Extend-C18 2.1 x 50 mm; eluents: water / acetonitrile, 0.1% formic acid
Property name: RP-LC retention time (s)
Your answer is read as s, so omit the unit and give the number.

Known RP-LC retention time results, listed for orientation:
COC(=O)c1ccc(Cn2cnc3nc4c(cc3c2=O)CC(C)CC4)cc1 (stereo not drawn)
852
Cc1cc(OCC(=O)N2CCC[C@H]2C(=O)O)c2c3c(c(=O)oc2c1)CCCC3
754

Kindly consider the entry below.
Please give the documented RP-LC retention time of O=C1CC2OCC=C3CN4CC[C@]56c7ccccc7N1C5[C@H]2[C@H]3C[C@H]46 (stereo partly drawn)
583

###

Recorded RP-LC retention time values for a group of compounds are listed next.
# Assay text: gradient 5% acetonitrile 3 min, to 50% in 2 min, to 85% in 15 min, held 3 min, 100 µL/min
# Condition set: column: Zorbax Extend-C18 2.1 x 50 mm; eluents: water / acetonitrile, 0.1% formic acid
Your answer is read as s, so omit the unit and give the number.

Cc1nnc([C@@H]2CC(F)(F)CN2C(=O)COc2ccc(F)cc2)o1
736
Cc1nnc(-c2ccc(Cl)cc2)nc1N1CCC(C)CC1
897
C[C@H]1CN(C(=O)c2cc(F)cc(F)c2)C[C@@H]1c1nc(-c2cccnc2)no1
795
Cc1cc2nc(C(=O)Nc3ccc(C#N)cc3)cc(C)n2n1
890

Please give the documented RP-LC retention time of COc1cccc(OC)c1OCC(O)CN1CCN(c2cc(Cl)ccc2C)CC1 (stereo not drawn)
615

Please give the documented RP-LC retention time of `Cn1cc(C2=CCN(C(=O)c3cccc(Cl)c3)CC2)c2cccnc21`
901

Please give the documented RP-LC retention time of `O=C(c1ccc(-n2cccn2)nc1)N1CCSCC1`
714

###

Recorded RP-LC retention time values for a group of compounds are listed next.
# Assay text: gradient 5% acetonitrile 3 min, to 50% in 2 min, to 85% in 15 min, held 3 min, 100 µL/min
# Condition set: column: Zorbax Extend-C18 2.1 x 50 mm; eluents: water / acetonitrile, 0.1% formic acid
Your answer is read as s, so omit the unit and give the number.

Known RP-LC retention time results, listed for orientation:
Cn1cc(-c2ccccc2)cc1C(=O)NCc1cccs1
979
Cc1sc(NC(=O)C2CCCO2)nc1-c1ccc2c(c1)NC(=O)CO2 (stereo not given)
732
CCNC(=O)c1ccc2nnc(C3CC3)n2c1
590
Cc1cccc(CN2CCCn3nc(C(=O)NCCc4cccs4)cc3C2=O)c1
820
O=C(Cc1ccsc1)N1CCCC1(CO)Cc1ccccc1 (stereo not given)
805
O=C(O)c1cn(-c2ccc(F)c(F)c2)nn1
664

Please give the documented RP-LC retention time of `CCn1c(=O)c2ccn(CC(=O)N3CCCc4ccccc43)c2n(CC)c1=O`
776

Please give the documented RP-LC retention time of c1ccc(-c2ccc(C(c3ccccc3)n3ccnc3)cc2)cc1 (stereo not given)
906

Please give the documented RP-LC retention time of COc1ccc(N2CCN(Cc3nc(-c4ccc(N5CCCC(C)C5)nc4)no3)CC2)cc1 (stereo not given)
1020

Please give the documented RP-LC retention time of Cc1cccc(C)c1NC(=O)C(C)n1cnc2nc3c(cc2c1=O)CCCC3 (stereo not given)
756

###

# Assay text: gradient 5% acetonitrile 3 min, to 50% in 2 min, to 85% in 15 min, held 3 min, 100 µL/min
# Condition set: column: Zorbax Extend-C18 2.1 x 50 mm; eluents: water / acetonitrile, 0.1% formic acid
Recorded RP-LC retention time values for a group of compounds are listed next.
Your answer is read as s, so omit the unit and give the number.

Known RP-LC retention time results, listed for orientation:
CCCc1ccc(S(=O)(=O)N2CCC3(CC2)CN(C)CC3c2nnc(CC)o2)cc1 (stereo unspecified)
692
O=C(c1ccc(Cn2cncn2)cc1)N1CCN(c2ccccc2)CC1
707

Kindly consider the entry below.
Please give the documented RP-LC retention time of CN(C)C(=O)c1ccc2c(c1)N(CC(=O)Nc1ccccn1)C(=O)C1CCCCN21 (stereo unspecified)
680

###

# Assay text: gradient 5% acetonitrile 3 min, to 50% in 2 min, to 85% in 15 min, held 3 min, 100 µL/min
# Condition set: column: Zorbax Extend-C18 2.1 x 50 mm; eluents: water / acetonitrile, 0.1% formic acid
Property name: RP-LC retention time (s)
Your answer is read as s, so omit the unit and give the number.

Known RP-LC retention time results, listed for orientation:
COc1ccc(-n2cc(C(=O)OCCc3ccccn3)c3cc(OC)c(OC)cc3c2=O)cc1
681
COc1ccc([C@H]2Sc3ccccc3N(CCN(C)C)C(=O)[C@H]2OC(C)=O)cc1
704
CN(C)CCn1nnc2cc(-c3noc(-c4cccc(Cl)c4)n3)ccc21
708
Cc1nc(C)c(-c2cc(C(=O)N3CCN(c4ccc(F)cc4)CC3)n[nH]2)s1
690
Cc1ccc(Cl)c(NC(=O)Cc2csc(C)n2)c1
687
c1cc(-c2noc(C3CCOC3)n2)cc(N2CCOCC2)n1 (stereo unspecified)
651
CCCCNC(=O)Cc1c(C)n(C)c2nc(-c3ccccc3)nn2c1=O
665
CC(C)c1nnc(C2CN(C(=O)c3cccn3C)CC23CCOCC3)o1 (stereo unspecified)
639
O=C([C@@H]1C[C@H](F)CN1S(=O)(=O)c1ccc(Cl)cc1)N1CCCCC1
852
COc1ccc(-c2nc3cnccn3c2Nc2ccc(C(=O)NCc3ccco3)cc2)cc1OC
682

Please give the documented RP-LC retention time of `COc1cccc(CNC(=O)C2=C3CCCN3c3ccc(Cl)cc3S2(=O)=O)c1`
898

Please give the documented RP-LC retention time of `CC(C)CC(=O)Nc1ccc(-n2cnc(C(=O)N3CCSCC3)c2)nc1`
709

Please give the documented RP-LC retention time of `CCN1C(=O)c2cccnc2Sc2cc(NC(=O)c3c(F)cccc3F)ccc21`
808

Please give the documented RP-LC retention time of `CCC(=O)N(C1CCOCC1)C1CCN(S(=O)(=O)c2ccccc2F)CC1`
797

Please give the documented RP-LC retention time of `Cc1ccc(-c2ncccc2CNS(=O)(=O)Cc2cc(F)cc(F)c2)cc1`
739
